Where do these numbers come from? They come from ChEMBL document CHEMBL1137737.

// zone of inhibition at 100 µg/disc lookup, one value per entry
tested on: Bacillus subtilis; test: Antibacterial activity against Bacillus subtilis NCIM 2063 at 100 ug/disk after 24 hrs by agar disc-diffusion method; format: functional; conditions: NCIM 2063, 24 h, read-out: DIZ
The figure you give is taken to be in mm; do not add the unit.

| smilesStructure | property | resultUnit | dataValue |
| --- | --- | --- | --- |
| O=S(=O)(Cc1nnc(-c2ccccc2Cl)o1)c1ccccc1 | zone of inhibition at 100 µg/disc | mm | 16 |
| O=S(=O)(Cc1ccccc1)Cc1nnc(-c2ccccc2Cl)s1 | zone of inhibition at 100 µg/disc | mm | 25 |

Task item: Give me measured zone of inhibition at 100 µg/disc, please, for this molecule: Nn1c(CS(=O)(=O)Cc2ccc(Cl)cc2)nnc1-c1ccccc1Cl
Reply: 37

Task item: Give me measured zone of inhibition at 100 µg/disc, please, for this molecule: O=S(=O)(Cc1ccc(Cl)cc1)Cc1nnc(-c2ccccc2)s1
Reply: 24

Task item: Give me measured zone of inhibition at 100 µg/disc, please, for this molecule: O=S(=O)(Cc1ccc(Cl)cc1)Cc1nnc(-c2ccccc2Cl)o1
Reply: 19

Task item: Give me measured zone of inhibition at 100 µg/disc, please, for this molecule: Nn1c(CS(=O)(=O)Cc2ccccc2)nnc1-c1ccccc1Cl
Reply: 30
